Reference source: ChEMBL document CHEMBL1152295

- procedure details: in vitro;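 further: Apical-to-basolateral permeability measured in Caco-2 cells at day 21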
- assay setup: human, Caco-2, Papp
reported property: Papp A→B at 10 µM (×10⁻⁶ cm/s)

> print(dat)
                                   molecule  measurement.units  measured.number
1  CN(C)C(=O)c1cc2cc(C3(Cc4ccccc4)CCNC3)ccc2[nH]1 (configuration not stated)         ×10⁻⁶ cm/s                4
2  c1ccc(CC2(c3ccc4[nH]ncc4c3)CCNC2)cc1 (configuration not stated)         ×10⁻⁶ cm/s               10
3  CCCCC1(c2ccc3[nH]ccc3c2)CCNC1 (configuration not stated)         ×10⁻⁶ cm/s              9.4
4  c1ccc(CC2(c3ccc4[nH]ccc4c3)CCNC2)nc1 (configuration not stated)         ×10⁻⁶ cm/s              3.2
5  NC(=O)c1cc2cc(C3(Cc4ccccc4)CCNC3)ccc2[nH]1 (configuration not stated)         ×10⁻⁶ cm/s              0.6
6  c1ccc(CC2(c3ccc4[nH]ccc4c3)CCNC2)cc1 (stereo in doubt; (+)-16)         ×10⁻⁶ cm/s               21
7  CCOC(=O)c1cc2cc(C3(Cc4ccccc4)CCNC3)ccc2[nH]1 (configuration not stated)         ×10⁻⁶ cm/s              3.5
